ASSAY_SYSTEM: T1, hIL2-DM-his (human, UniProt P60568 21-153)
T1 construct: expressed in ExpiCHO-S cells, nickel-column purified; also called hIL-2 mutein containing two point mutations K64G and N90R (with a his-tag); not shown: his-tag
T1 sequence (P60568 21-153 K84G/N110R): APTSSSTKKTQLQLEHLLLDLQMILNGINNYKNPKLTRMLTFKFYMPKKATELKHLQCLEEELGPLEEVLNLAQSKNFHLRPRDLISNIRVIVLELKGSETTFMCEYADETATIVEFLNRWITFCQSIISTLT
ASSAY_NOTES: BLI ForteBio, Ab on Protein A sensor
Parameter Kd: see the listing below.
VALUE_KIND: Kd (nM)

• hS4B6-H6K3 (antibody, V domains shown, full antibody) VH: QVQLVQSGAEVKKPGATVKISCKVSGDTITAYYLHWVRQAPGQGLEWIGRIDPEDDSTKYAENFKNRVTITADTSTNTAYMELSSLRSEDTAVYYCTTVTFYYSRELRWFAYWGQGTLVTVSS VL: DIVLTQSPATLSLSPGERATLSCQASQDIGNYLSWYQQKPGQAPRLLIYSATSLADGIPARFSGSRSGTDYTLTISSLEPEDFAVYYCLQHYSTPYTFGQGTKLEIK = 46.9
• hS4B6-H6K3-hu05 (antibody, V domains shown, H6K3 with heavy chain I48M) VH: QVQLVQSGAEVKKPGATVKISCKVSGDTITAYYLHWVRQAPGQGLEWMGRIDPEDDSTKYAENFKNRVTITADTSTNTAYMELSSLRSEDTAVYYCTTVTFYYSRELRWFAYWGQGTLVTVSS VL: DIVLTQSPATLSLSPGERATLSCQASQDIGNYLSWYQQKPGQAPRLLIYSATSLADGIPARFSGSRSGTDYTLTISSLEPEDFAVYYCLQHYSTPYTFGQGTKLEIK = 39.4
• hS4B6-H6K3-hu04 (antibody, V domains shown, H6K3 with heavy chain L34M) VH: QVQLVQSGAEVKKPGATVKISCKVSGDTITAYYMHWVRQAPGQGLEWIGRIDPEDDSTKYAENFKNRVTITADTSTNTAYMELSSLRSEDTAVYYCTTVTFYYSRELRWFAYWGQGTLVTVSS VL: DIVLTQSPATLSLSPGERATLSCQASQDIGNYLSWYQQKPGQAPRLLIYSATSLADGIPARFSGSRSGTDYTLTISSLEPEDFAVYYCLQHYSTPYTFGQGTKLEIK = 34.6
• hS4B6-H6K3-hu09 (antibody, V domains shown, H6K3 with light chain D56S) VH: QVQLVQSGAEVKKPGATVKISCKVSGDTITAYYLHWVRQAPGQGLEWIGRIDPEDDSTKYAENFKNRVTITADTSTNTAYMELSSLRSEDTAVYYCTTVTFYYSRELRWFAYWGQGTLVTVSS VL: DIVLTQSPATLSLSPGERATLSCQASQDIGNYLSWYQQKPGQAPRLLIYSATSLASGIPARFSGSRSGTDYTLTISSLEPEDFAVYYCLQHYSTPYTFGQGTKLEIK = 23.6
